- Test system: Candida albicans IFO1385
- method: Antifungal activity: MIC against Candida albicans IFO1385 on yeast nitrogen base agar
- Type: cell-based
- conditionDetails: 48 h; 2 days of incubation at 37° C., yeast nitrogen base agar with 1% glucose and 0.25% dipotassium hydrogen phosphate; single use; read-out: MIC
propertyName: MIC (µg/mL)

Sample answers from the record:
>>> reading("CCCCOC1C2OC3(OCC45CC6C(C)CCC6C6(C=O)CC4C=C(C(C)C)C65C(=O)O)OC2OC1C3O (stereo not shown)")
3.13
>>> reading("CCCCCCOC1C2OC3(OCC45CC6C(C)CCC6C6(C=O)CC4C=C(C(C)C)C65C(=O)O)OC2OC1C3O (stereo not shown)")
1.56

I = CCCCCCCCCCOC1C2OC3(OCC45CC6C(C)CCC6C6(C=O)CC4C=C(C(C)C)C65C(=O)O)OC2OC1C3O (stereo not shown)
II = CCCCC(=O)OC1C2OC3(OCC45CC6C(C)CCC6C6(C=O)CC4C=C(C(C)C)C65C(=O)O)OC2OC1C3O (stereo not shown)
Task item: // returns I or II , whichever has the lower MIC State your choice using its label.
Reply: I
